Exercise: state measured Inhibition of ear swelling for each of the molecules provided.
# System: xylene-induced ear edema in mice
# method: Xylene-induced ear edema in mice
# Format: in vivo, Kunming mice
# measurement.context: 25 mg/kg intragastric, xylene-induced ear edema
Lab book: enter the figure in %, no units written.

Which measured Inhibition of ear swelling value corresponds to CN1CC(=O)N(C(=O)C=Cc2ccccc2)C1=O ?
19.67

Which measured Inhibition of ear swelling value corresponds to COc1cc(/C=C/C(=O)N2C(=O)CN(C)C2=O)ccc1OC(C)=O ?
14.61

Which measured Inhibition of ear swelling value corresponds to CC(=O)Oc1ccc(/C=C/C(=O)N2C(=O)CN(C)C2=O)cc1 ?
9.96

Which measured Inhibition of ear swelling value corresponds to CN1CC(=O)N(C(=O)/C=C/c2ccco2)C1=O ?
29.14

Which measured Inhibition of ear swelling value corresponds to CN1CC(=O)N(C(=O)/C=C/c2ccc3c(c2)OCO3)C1=O ?
23.18
